# Test system: XBP1(u)-luciferase splicing reporter in HepG2 hepatoma cells
# MEASUREMENT_PROTOCOL: HepG2 XBP1 reporter assay (XBP1(u)-Luc)
# Assay type: cell-based
# ASSAY_SETUP: Homo sapiens, 6 h, six hours after addition of compound
READOUT_NAME: IC50

Recorded IC50, per entry:
> print(dat)
                                   compound                           target.of.assay  readout.name          result
1  Cc1cc(N2CCCOCC2c2ncc(CS(C)(=O)=O)cc2OC(F)F)nc(N)n1 (stereo not drawn)  XBP1(u)-luciferase splicing reporter in HepG2 hepatoma cells          IC50  600 to 2000 nM
2  COC(=O)c1cc(Cl)c(C2COCCCN2c2cc(C)nc(N)n2)cc1C#N (stereo not drawn)  XBP1(u)-luciferase splicing reporter in HepG2 hepatoma cells          IC50       ≥ 5000 nM
3  CCc1cc(N2CCCOCC2c2cc(O)c(NC(C)=O)cc2Cl)nc(N)n1 (stereo not drawn)  XBP1(u)-luciferase splicing reporter in HepG2 hepatoma cells          IC50        < 600 nM
4  COc1cc(OC)c(C2COCCCN2c2cc(C)nc(N)n2)cc1O (stereo not drawn)  XBP1(u)-luciferase splicing reporter in HepG2 hepatoma cells          IC50        < 600 nM
5  Cc1cc(N2CCCOC[C@@H]2c2ccc([C@H](C)S(C)(=O)=O)cc2Cl)nc(N)n1  XBP1(u)-luciferase splicing reporter in HepG2 hepatoma cells          IC50  600 to 2000 nM
6  Cc1cc(N2CCCOC[C@H]2c2cc3c(cc2Cl)N(C)CC3)nc(N)n1  XBP1(u)-luciferase splicing reporter in HepG2 hepatoma cells          IC50       ≥ 5000 nM

So what does the record say about IC50 for CNC(=O)[C@]1(C)CNc2cc(Cl)c([C@H]3COCCCN3c3cc(C)nc(N)n3)cc2O1 ?
< 600 nM

For CCc1cc(N2CCCOC[C@H]2c2ccc(OS(C)(=O)=O)cc2Cl)nc(N)n1 , what is its reported IC50?
≥ 5000 nM

Any idea what its IC50 is? The compound is Cc1cc(N2CCCOCC2c2cc(O)c(NC(=O)C3CC3)cc2Cl)nc(N)n1 (stereo not drawn)
< 600 nM

----------
# Tested on: XBP1(u)-luciferase splicing reporter in HepG2 hepatoma cells
# MEASUREMENT_PROTOCOL: HepG2 XBP1 reporter assay (XBP1(u)-Luc)
# Type: cell-based
# ASSAY_SETUP: Homo sapiens, 6 h, six hours after addition of compound
pIC50: −log10 of the molar value.
Parameter pIC50: see the listing below.

Would you mind telling me what pIC50 value was observed for COc1cc(F)c(F)cc1[C@H]1COCCCN1c1cc(C)nc(N)n1 [D-4] ?
> 6.22

Which value of pIC50 has been reported for Cc1cc(N2CCCOC[C@H]2c2ccc(OS(C)(=O)=O)cc2OC(F)(F)F)nc(N)n1 [D-158] in the records?
≤ 5.30

May I ask what pIC50 has been recorded for COc1cc([C@@H]2COCCCN2c2cc(C)nc(N)n2)c(Cl)cc1OCC#N [D-159] ?
≤ 5.30

I would be grateful if you could share the reported pIC50 for COc1ccc([C@H]2COCCCN2c2cc(C)nc(N)n2)c(Cl)c1 [D-80] .
> 6.22

I am curious: what pIC50 value has been reported for Cc1cc(N2CCCOC[C@@H]2c2cc(O)c(OC(F)(F)F)cc2Cl)nc(N)n1 [D-119] ?
> 6.22

----------
# Tested on: XBP1(u)-luciferase splicing reporter in HepG2 hepatoma cells
# MEASUREMENT_PROTOCOL: HepG2 XBP1 reporter assay (XBP1(u)-Luc)
# Assay type: cell-based
# ASSAY_SETUP: Homo sapiens, 6 hours after compound addition, Table 4
pIC50: −log10 of the molar value.
READOUT_NAME: pIC50

// known answers, use as guide
> print(dat)
                                   compound  readout.name        result
1  Cc1cc(N2CCCOCC2c2cc3c(cc2Cl)OCC2(CC2)CO3)nc(N)n1 (stereo not shown)         pIC50        > 6.22
2  COc1cc(Cl)c([C@@H]2COCCCN2c2cc(C)nc(N)n2)cc1OC         pIC50        ≤ 5.30
3  Cc1cc(N2CCCOC[C@@H]2c2ccc(CS(C)(=O)=O)cc2F)nc(N)n1         pIC50        > 6.22
4  Cc1cc(N2CCCOC[C@@H]2c2cc3c(cc2Cl)n(C)c(=O)n3C)nc(N)n1         pIC50        > 6.22
5  Cc1cc(N2CCCOCC2c2cc(Cl)c(F)cc2Cl)nc(N)n1 (stereo not shown)         pIC50  5.30 to 5.70

Tell me the measured pIC50 of CCOc1cc(C2COCCCN2c2cc(C)nc(N)n2)c(Cl)cc1OC (stereo not shown) , please.
> 6.22

Fill blank: measured pIC50 of the compound Cc1cc(N2CCCOCC2c2ccc(CS(C)(=O)=O)cc2F)nc(N)n1 (stereo not shown) is ____.
5.70 to 6.22

What value of pIC50 has been reported for the following compound? CCOC(=O)COc1cc(Cl)c(C2COCCCN2c2cc(C)nc(N)n2)cc1OC (stereo not shown)
5.70 to 6.22

Which pIC50 reading was recorded for the compound Cc1cc(N2CCCOCC2c2cc(F)c(-c3ccncc3)cc2Cl)nc(N)n1 (stereo not shown) ?
5.70 to 6.22

Bench note: what pIC50 did Cc1cc(N2CCCOCC2c2cc(S(N)(=O)=O)c(Cl)cc2Cl)nc(N)n1 (stereo not shown) show?
5.70 to 6.22

Looking for the measured pIC50 of Cc1cc(N2CCCOCC2c2cc(C)c(F)cc2Cl)nc(N)n1 (stereo not shown) , can you help?
5.30 to 5.70

Request the reported pIC50 associated with Cc1cc(N2CCCOC[C@@H]2c2cc(C)c(N)cc2Cl)nc(N)n1
> 6.22

Give its pIC50 value. Item: CCOc1cc(Cl)c(C2COCCCN2c2cc(C)nc(N)n2)cc1OCC (stereo not shown)
> 6.22

Given the entry Cc1cc(N2CC3(CC3)COCC2c2ccc(CS(C)(=O)=O)cc2Cl)nc(N)n1 (stereo not shown) , report its measured pIC50.
≤ 5.30

Form field: reported pIC50 of Cc1cc(N2CCCOCC2c2ccc(CS(C)(=O)=O)cc2OC(F)(F)F)nc(N)n1 (stereo not shown)
> 6.22

----------
The following compounds are shown together with reported IC50 values.
# System: XBP1(u)-luciferase splicing reporter in HepG2 hepatoma cells
# MEASUREMENT_PROTOCOL: HepG2 XBP1 reporter assay (XBP1(u)-Luc)
# Assay type: cell-based
# ASSAY_SETUP: Homo sapiens, 6 h, six hours after addition of compound

Examples from the recorded data:
> print(dat)
                                   compound  readout.name       result
1  CCOC(=O)OCc1cc(Cl)c(C2COCCCN2c2cc(C)nc(N)n2)cc1OCC (stereo not drawn)          IC50  0.6 to 2 µM
2  Cc1cc(N2CCCOC[C@H]2c2cc3c(cc2Cl)NCCC3)nc(N)n1          IC50       ≥ 5 µM
3  Cc1cc(N2CCCOCC2c2ccc(Cl)cc2C(=O)O)nc(N)n1 (stereo not drawn)          IC50       ≥ 5 µM
4  Cc1cc(N2CCCOC[C@H]2c2cc(O)c(C(=O)NC(C)C)cc2Cl)nc(N)n1          IC50       ≥ 5 µM
5  Cc1cc(N2CCCOC[C@H]2c2ccc(CS(C)(=O)=O)nc2OC(F)F)nc(N)n1          IC50       ≥ 5 µM

Which IC50 value is on record for Cc1cc(N2CCCOC[C@@H]2c2ccc(C3CCNCC3)cc2Cl)nc(N)n1 ?
2 to 5 µM

Query (compound): CCc1cc(N2CCCOC[C@H]2c2cc(O)c(OC)cc2Cl)nc(N)n1 ; field requested: IC50
≥ 5 µM

# get_value(readout='IC50', item= CCOc1cc(C2COCCCN2c2cc(C)nc(N)n2)c(Cl)cc1OCC(N)=O (stereo not drawn) )
0.6 to 2 µM

Entry Cc1cc(N2CCCOC[C@@H]2c2cc(O)c(C)cc2Cl)nc(N)n1 has what IC50?
< 0.6 µM

----------
# System: XBP1(u)-luciferase splicing reporter in HepG2 hepatoma cells
# MEASUREMENT_PROTOCOL: HepG2 XBP1 reporter assay (XBP1(u)-Luc)
# Assay type: cell-based
# ASSAY_SETUP: Homo sapiens, 6 h, six hours after addition of compound
READOUT_NAME: IC50

What is its IC50 for XBP1(u)-luciferase splicing reporter in HepG2 hepatoma cells? Entry: Cc1cc(N2CCCOCC2c2sc(Cl)nc2Cl)nc(N)n1 [D-103]
2000 to 5000 nM

Kindly state the measured IC50 obtained for Cc1cc(N2CCCOCC2c2ccc(C3CCNCC3)cc2Cl)nc(N)n1 [D-61] with XBP1(u)-luciferase splicing reporter in HepG2 hepatoma cells.
< 600 nM

Recall the recorded IC50 for CCc1ccccc1[C@H]1COCCCN1c1cc(C)nc(N)n1 [D-106] with XBP1(u)-luciferase splicing reporter in HepG2 hepatoma cells and state it.
< 600 nM

Query the reported IC50 for XBP1(u)-luciferase splicing reporter in HepG2 hepatoma cells; item: C#CCOc1cc(Cl)c(C2COCCCN2c2cc(C)nc(N)n2)cc1OC [D-60]
< 600 nM

// fetch XBP1(u)-luciferase splicing reporter in HepG2 hepatoma cells IC50 for Cc1cc(N2CCCOC[C@H]2c2cc(N3CC[C@H](O)C3)ccc2Cl)nc(N)n1 [D-63]
< 600 nM
